System: NCI-H596
experiment: relative viability (nuclei count vs DMSO), 5 days (fraction); higher = more cells survive
test_settings: first compound 0.1 µM
For each of the molecules below, state its relative viability.
Quick one: just the number, no unit, thanks!

Q) Given the entry O=c1cc(N2CCOCC2)oc2c(-c3cccc4c3sc3ccccc34)cccc12 + NC(=O)Nc1cc(-c2cccc(F)c2)sc1C(=O)N[C@H]1CCCNC1 [AZD7762] (partner 0.2 µM) , what relative viability was observed with NCI-H596?
A) 0.75

Q) Further, for CCN(CC)CCCCNc1ncc2cc(-c3cc(OC)cc(OC)c3)c(NC(=O)NC(C)(C)C)nc2n1 + CC1(C)CCC(c2ccc(Cl)cc2)=C(CN2CCN(c3ccc(C(=O)NS(=O)(=O)c4ccc(N[C@H](CCN5CCOCC5)CSc5ccccc5)c(S(=O)(=O)C(F)(F)F)c4)cc3)CC2)C1 [Navitoclax] (partner 0.5 µM) ?
A) 0.919

Q) Further, for O=c1cc(N2CCOCC2)oc2c(-c3cccc4c3sc3ccccc34)cccc12 + CC(=O)Nc1cccc(-n2c(=O)n(C3CC3)c(=O)c3c(Nc4ccc(I)cc4F)n(C)c(=O)c(C)c32)c1 [Trametinib] (partner 0.02 µM) ?
A) 0.831

Q) Further, for CCN(CC)CCCCNc1ncc2cc(-c3cc(OC)cc(OC)c3)c(NC(=O)NC(C)(C)C)nc2n1 + Nc1nc2[nH]cc(CCc3ccc(C(=O)N[C@@H](CCC(=O)O)C(=O)O)cc3)c2c(=O)[nH]1 [Pemetrexed] (partner 0.2 µM) ?
A) 0.488
